Cited source: patent US4751305A

# System: IL 1-induced release of neutral protease from rabbit articular chondrocytes
# Procedure details: inhibition of the IL 1-induced release of neutral protease from rabbit articular chondrocytes (azocoll neutral protease assay)
# Assay type: cell-based
# Condition label: Oryctolagus cuniculus, Chondrocyte; dose 10 μM; compound 10 min before purified human IL 1; 24 h; read-out: % Inhibition (I.S.D.)
Measured metric: inhibition at 10 µM (%)
Write the number in % without appending the unit.

What does the data say about its inhibition at 10 µM? Entry: Clc1ccc2c(NNc3ccccc3)c3c(nc2c1)CCN(c1cnccn1)C3 [Example 5]
85

What does the data say about its inhibition at 10 µM? Entry: N#Cc1ccc(N2CCc3nc4cc(Cl)ccc4c(Cl)c3C2)nc1 [Example 4, hemihydrate]
94

What does the data say about its inhibition at 10 µM? Entry: Clc1ccc2c(Cl)c3c(nc2c1)CCN(c1ncccn1)C3 [Example 1]
34
